# assayMethodText: Cytotoxicity evaluation, MTS assay
# Type: cell-based
# assaySetup: human, MRC-5 human lung fibroblast cells, 10^−6 M, 72 h; read-out: MRC5 Cell Viability
attributeMeasured: viability at 72 h (%)
One number for each entry, in %.

Quick check: viability at 72 h of "CCCCCC(=O)C1=C(O)C(C)(C)C(O)=C(Cc2c(O)c(C)c(OC)c(C(=O)CCC)c2O)C1=O" ?
105

====

# assayMethodText: Cytotoxicity evaluation, MTS assay
# Format: cell-based
# assaySetup: human, MRC-5 human lung fibroblast cells, 10^−5 M, 72 h; read-out: MRC5 Cell Viability
attributeMeasured: viability at 72 h (%)
One number for each entry, in %.

Quick check: viability at 72 h of "CCCCCC(=O)C1=C(O)C(C)(C)C(O)=C(Cc2c(O)c(C)c(OC)c(C(=O)CCC)c2O)C1=O" ?
99
